Hello, the source for this data is ChEMBL document CHEMBL1127491, in case you need it.

test system: L1210; assay: Percentage of viable L1210 leukemia cells killed by single treatment with the compound; format: ADME, cell-based; settings: mouse

- molecule: "CCCCCn1cnc2c(S)ncnc21"
  tgt: "L1210"
  Cells killed / %: 91
- molecule: "CCCCCn1cnc2c([S+](N)[O-])ncnc21 (stereo not drawn)"
  tgt: "L1210"
  Cells killed / %: 90
- molecule: "CCCCCCn1cnc2c(S)ncnc21"
  tgt: "L1210"
  Cells killed / %: 87
- molecule: "Nc1nc(S(=O)(=O)Cc2ccccc2)c2ncn(C3O[C@H](CO)[C@@H](O)[C@H]3O)c2n1 (stereo partly drawn)"
  tgt: "L1210"
  Cells killed / %: 76
- molecule: "CCCCCCn1cnc2c(SN)nc(N)nc21"
  tgt: "L1210"
  Cells killed / %: 87
- molecule: "CCCCCCn1cnc2c([S+](N)[O-])nc(N)nc21 (stereo not drawn)"
  tgt: "L1210"
  Cells killed / %: 93
- molecule: "CCCCCn1cnc2c(SN)nc(N)nc21"
  tgt: "L1210"
  Cells killed / %: 70
- molecule: "CCCCCn1cnc2c(S)nc(N)nc21"
  tgt: "L1210"
  Cells killed / %: 92
- molecule: "Nc1nc([S+]([O-])Cc2ccccc2)c2ncn(C3O[C@H](CO)[C@@H](O)[C@H]3O)c2n1 (stereo partly drawn)"
  tgt: "L1210"
  Cells killed / %: 97
- molecule: "Nc1nc([S+](N)[O-])c2ncn(CCCCCCO)c2n1 (stereo not drawn)"
  tgt: "L1210"
  Cells killed / %: 96
- molecule: "Nc1nc([S+](N)[O-])c2ncn(C3O[C@H](CO)[C@@H](O)[C@H]3O)c2n1 (stereo partly drawn)"
  tgt: "L1210"
  Cells killed / %: 99.8
- molecule: "CCCCCCn1cnc2c(S)nc(N)nc21"
  tgt: "L1210"
  Cells killed / %: 72
- molecule: "CSc1nc(N)nc2c1ncn2[C@@H]1O[C@H](CO)[C@@H](O)[C@H]1O"
  tgt: "L1210"
  Cells killed / %: 0
